Molecular target: RARα (Homo sapiens, UniProt P10276)
Sequence (P10276 183-417 limits assumed): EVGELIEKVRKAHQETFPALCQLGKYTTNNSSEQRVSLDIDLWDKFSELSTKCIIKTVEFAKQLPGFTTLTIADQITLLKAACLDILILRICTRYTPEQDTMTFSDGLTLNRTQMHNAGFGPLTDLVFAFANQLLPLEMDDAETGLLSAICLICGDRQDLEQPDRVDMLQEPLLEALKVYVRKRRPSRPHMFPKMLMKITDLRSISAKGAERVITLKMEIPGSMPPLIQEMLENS
Answer each item with its documented IC50.

IC50 for CCC1(CC)CCC(C)(C)c2cc(\C(C)=C/C=C/C(C)=C/C(=O)O)ccc21 [Compound 24] is 0.046 µM

IC50 for CC1=C(/C=C/C2=C(/C=C/C(C)=C/C(=O)O)CCCCC2)C(C)(C)CCC1 [Compound 1] is > 10 µM

IC50 for CC(/C=C/[C@@H]1C[C@@H]1c1ccc2c(c1)C(C)(C)CCC2(C)C)=C\C(=O)O (racemic) [Compound 4] is > 10 µM

IC50 for CCCCOc1c(\C(C)=C/C=C/C(C)=C/C(=O)O)cc(C(C)(C)C)cc1C(C)(C)C [Compound 15] is 4.2 µM

IC50 for CC(/C=C/c1sccc1-c1ccc2c(c1)C(C)(C)CCC2(C)C)=C\C(=O)O [Compound 9] is 3.4 µM

IC50 for CCOc1c(\C(C)=C/C=C/C(C)=C/C(=O)O)cc(C(C)(C)C)cc1C(C)(C)C [Compound 21] is > 10 µM

IC50 for CC1=C(/C=C/c2sccc2/C=C/C(C)=C/C(=O)O)C(C)(C)CCC1 [Compound 5] is 1.6 µM

IC50 for CC(/C=C/C1=C(c2ccc3c(c2)C(C)(C)CCC3(C)C)CCCC1)=C\C(=O)O [Compound 6] is > 10 µM

IC50 for CCCOc1cc2c(cc1\C(C)=C/C=C/C(C)=C/C(=O)O)C(C)(C)CCC2(C)C [Compound 23] is 3.1 µM

IC50 for CCCCOc1c([C@@H]2C[C@@H]2/C=C/C(C)=C/C(=O)O)cc(C(C)(C)C)cc1C(C)(C)C (racemic) [Compound 16] is > 10 µM

* * *

Target: RXRβ (Homo sapiens)
Construct: Full length RXR cDNA is used for transfection
Sequence (P28702 1-533): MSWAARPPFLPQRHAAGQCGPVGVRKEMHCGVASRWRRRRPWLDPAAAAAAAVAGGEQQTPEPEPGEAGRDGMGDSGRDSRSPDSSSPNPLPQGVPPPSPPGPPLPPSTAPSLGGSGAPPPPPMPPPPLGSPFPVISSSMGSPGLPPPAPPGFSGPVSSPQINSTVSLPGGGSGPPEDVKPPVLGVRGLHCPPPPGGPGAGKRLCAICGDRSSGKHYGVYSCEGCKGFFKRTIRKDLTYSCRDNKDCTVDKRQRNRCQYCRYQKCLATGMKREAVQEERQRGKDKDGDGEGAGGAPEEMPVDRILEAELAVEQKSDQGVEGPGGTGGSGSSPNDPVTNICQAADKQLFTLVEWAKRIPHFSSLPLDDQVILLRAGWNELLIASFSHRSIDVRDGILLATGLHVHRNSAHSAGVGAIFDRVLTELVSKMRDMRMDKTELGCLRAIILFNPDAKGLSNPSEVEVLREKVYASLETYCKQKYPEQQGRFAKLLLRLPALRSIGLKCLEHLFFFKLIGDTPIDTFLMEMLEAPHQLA
Test: Retinoid activation assay, RXRβ (Schneider SL-3 cells, luciferase reporter)
Details: read-out: Activation EC50 RXR β
Procedure: Full length RXR cDNA is used for transfection. As reporter system, the luciferase gene is used in a construct with three copies of a RXR response element from rat CRBP gene, (formerly RARE from betaRAR gene), fused to alcoholdehydrogenase gene promoter in the plasmid pGL2-basic. Schneider SL-3 cells from Drosophila are transiently transfected 3-4 h before the experiment by the Ca-phosphate-DNA coprecipitation method. […]
endpoint-name: EC50

EC50 for CCCOc1cc2c(cc1\C(C)=C/C=C/C(C)=C/C(=O)O)C(C)(C)CCC2(C)C [Compound 23] is > 10 µM

EC50 for CCC1(CC)CCC(C)(C)c2cc(\C(C)=C/C=C/C(C)=C/C(=O)O)ccc21 [Compound 24] is ≥ 10 µM

EC50 for CCc1cc2c(cc1\C(C)=C/C=C/C(C)=C/C(=O)O)CCCC2C (racemic) [Compound 11] is 0.017 µM

EC50 for CC1=C(C#CC2=C(/C=C/C(C)=C/C(=O)O)CCCCC2)C(C)(C)CCC1 [Compound 18] is ≥ 10 µM

These entries and their values trace back to patent US20080255206A1.
